# System: U2OS
# EXPERIMENT NOTES: Multiplex assay against U2OS
# Type: toxicity, cell-based
# EXPERIMENTAL PARAMETERS: human, 24 h, 10 µM, compound concentration 10 uM, replicate 2
Please respond with reported Population Fragmented Nuclei (%) for every item in the list.
Entry rule: numbers only, all in %.

Endpoint output: Population Fragmented Nuclei (%) of "O=C1[C@H](Cc2ccc(O)cc2)N2C(=O)CCN(C(=O)NCc3ccccc3)[C@H]2CN1Cc1cccc2ccccc12" . Value?
29

Look up Population Fragmented Nuclei (%) for this molecule: "Cc1cnc(-c2cc(N3CCN(C(=O)CCS(C)(=O)=O)CC3)ncc2Cl)c(C)c1"
21

What value of Population Fragmented Nuclei (%) has been reported for the following molecule? Cl.NCCc1ccc(O)c(O)c1 [DOPAMINE HYDROCHLORIDE]
15

// Population Fragmented Nuclei (%) lookup, key: "O=C(CCCc1ccccc1)Nc1nc2ccccc2c(=O)s1"
19

Using the record for Br.CS(=O)(=O)Nc1c(O)ccc2c1CCCC2C1=NCCN1 (stereo unspecified) , report its Population Fragmented Nuclei (%).
16

# get_value(readout='Population Fragmented Nuclei (%)', item= CN[C@@H](C)C(=O)N[C@H](C(=O)N1CCC[C@H]1C(=O)Nc1snnc1-c1ccccc1)C1CCCCC1 [GDC-0152] )
20

Item "CN(C)C(=O)Cn1cc(-c2ccc(-c3cncc4ccccc34)cc2)cn1" has what recorded Population Fragmented Nuclei (%)?
11

Look up Population Fragmented Nuclei (%) for this molecule: "CCCCC(=O)N(Cc1ccc(-c2ccccc2-c2nnn[nH]2)cc1)[C@H](C(=O)O)C(C)C"
22

Any idea what its Population Fragmented Nuclei (%) is? The molecule is "CCCOc1ccc2[nH]cc(C3=CCNCC3)c2n1.Cl"
14

Request the reported Population Fragmented Nuclei (%) associated with CC(C)(C)c1cc(NC(=O)Nc2ccc(-c3cn4c(n3)sc3cc(OCCN5CCOCC5)ccc34)cc2)no1 [QUIZARTINIB]
10

Field request: Population Fragmented Nuclei (%) | item: CC(C)COc1ccc(CNC(=O)N(Cc2ccc(F)cc2)C2CCN(C)CC2)cc1 [PIMAVANSERIN]
16

Bench note: what Population Fragmented Nuclei (%) did Cl.N=C(N)NC(=O)Cc1c(Cl)cccc1Cl [GUANFACINE HYDROCHLORIDE] show?
15

Any idea what Population Fragmented Nuclei (%) was measured for "CC(/C=C1\SC(=S)N(CCCC(=O)Nc2ccc(C(=O)O)c(O)c2)C1=O)=C\c1ccccc1" ?
16

Can you share its Population Fragmented Nuclei (%)? I mean this molecule: CC(C)c1noc(N2CCC(COc3ccc(-c4ccc(S(C)(=O)=O)cc4)nc3)CC2)n1 [GSK-1292263]
15

Quick one: Population Fragmented Nuclei (%) of "CN1CCN(c2cc(-c3ccccc3)nc(N)n2)CC1" ?
12

Which Population Fragmented Nuclei (%) value is on record for Cc1sc2c(c1C)C(c1ccc(Cl)cc1)=N[C@@H](CC(=O)NCCCCCCCCNC(=O)COc1cccc3c1C(=O)N(C1CCC(=O)NC1=O)C3=O)c1nnc(C)n1-2 (stereo partly specified) ?
27

* * *

# System: U2OS
# EXPERIMENT NOTES: Multiplex assay against U2OS
# Type: toxicity, cell-based
# EXPERIMENTAL PARAMETERS: human, 48 h, 1 µM, compound concentration 1 uM, replicate 2
PARAMETER MEASURED: Population Hoechst High Intensity Objects (%)
State just the number; it will be interpreted in %.

Please report the recorded Population Hoechst High Intensity Objects (%) for "COc1cccc2c1c(NS(=O)(=O)c1ccc(Cl)s1)nn2Cc1cccc(CNC(=O)C(C)(C)O)c1" .
7

Which value of Population Hoechst High Intensity Objects (%) has been reported for COC[C@@H](c1ccc(C(F)(F)F)cc1)N1CCN(C2(C)CCN(C(=O)c3c(C)ncnc3C)CC2)C[C@@H]1C.O=C(O)/C=C\C(=O)O [VICRIVIROC MALEATE] in the records?
1

Population Hoechst High Intensity Objects (%) for CC(C)c1noc(N2CCC(COc3ccc(-c4ccc(S(C)(=O)=O)cc4)nc3)CC2)n1 [GSK-1292263] ?
1

# lookup: Population Hoechst High Intensity Objects (%) of "N#Cc1c(Oc2cccc(OS(=O)(=O)CCCC(F)(F)F)c2)cccc1C(F)(F)F"
2

Look up Population Hoechst High Intensity Objects (%): "C[C@H](N)COC(=O)[C@@H](CCCCN)NC(=O)Cc1c(-c2ccc3ccccc3c2)[nH]c2c1ccc1ccccc12"
2

Can you look up the measured Population Hoechst High Intensity Objects (%) of "Cc1cnc(-c2cc(N3CCN(C(=O)CCS(C)(=O)=O)CC3)ncc2Cl)c(C)c1" for me?
1

Which Population Hoechst High Intensity Objects (%) is reported for this molecule? "CC(/C=C1\SC(=S)N(CCCC(=O)Nc2ccc(C(=O)O)c(O)c2)C1=O)=C\c1ccccc1"
3

So what's the measured Population Hoechst High Intensity Objects (%) for this one? CC(C)(C)c1cc(NC(=O)Nc2ccc(-c3cn4c(n3)sc3cc(OCCN5CCOCC5)ccc34)cc2)no1 [QUIZARTINIB]
2

Entry Cl.N=C(N)NC(=O)Cc1c(Cl)cccc1Cl [GUANFACINE HYDROCHLORIDE] : reported Population Hoechst High Intensity Objects (%) = ?
3

Please report the recorded Population Hoechst High Intensity Objects (%) for "CN1CCN(c2cc(-c3ccccc3)nc(N)n2)CC1" .
3

Which Population Hoechst High Intensity Objects (%) value belongs to Cc1sc2c(c1C)C(c1ccc(Cl)cc1)=N[C@@H](CC(=O)NCCCCCCCCNC(=O)COc1cccc3c1C(=O)N(C1CCC(=O)NC1=O)C3=O)c1nnc(C)n1-2 (stereo partly specified) ?
1

Item under review: "Cc1noc(-c2ccc(-c3ccc(CC(=O)O)cc3)cc2)c1NC(=O)O[C@H](C)c1ccccc1Cl" . Reported Population Hoechst High Intensity Objects (%)?
0

Which Population Hoechst High Intensity Objects (%) value belongs to "CN(C)C(=O)Cn1cc(-c2ccc(-c3cncc4ccccc34)cc2)cn1" ?
3

Entry CCCCC1=NC2(CCCC2)C(=O)N1Cc1ccc(-c2ccccc2-c2nnn[nH]2)cc1 [IRBESARTAN] : reported Population Hoechst High Intensity Objects (%) = ?
4

Which value of Population Hoechst High Intensity Objects (%) has been reported for "Cc1onc(-c2ccccc2Cl)c1C(=O)N(C)c1ccc(Cl)cc1" in the records?
1

// lookup Population Hoechst High Intensity Objects (%) for "CCc1cc2cc(NS(=O)(=O)c3ccc(C#N)cc3)ccc2n(CC)c1=O"
3

# lookup: Population Hoechst High Intensity Objects (%) of "NCCc1cn(S(=O)(=O)c2c(Cl)nc3sccn23)c2ccccc12.O=C(O)C(=O)O"
6

I would be grateful if you could share the reported Population Hoechst High Intensity Objects (%) for "COc1ccccc1N1CCN(C[C@@H](C(=O)NC(C)(C)C)c2ccccc2)CC1.Cl.Cl" .
4

Requested read-out: Population Hoechst High Intensity Objects (%). Entry: "O=C(CCCc1ccccc1)Nc1nc2ccccc2c(=O)s1"
5

Consider the molecule shown here: "CCCCC(=O)N(Cc1ccc(-c2ccccc2-c2nnn[nH]2)cc1)[C@H](C(=O)O)C(C)C" What is its recorded Population Hoechst High Intensity Objects (%)?
3

Looking for the measured Population Hoechst High Intensity Objects (%) of CC(C)COc1ccc(CNC(=O)N(Cc2ccc(F)cc2)C2CCN(C)CC2)cc1 [PIMAVANSERIN] , can you help?
1

Report Population Hoechst High Intensity Objects (%) for "O=C1[C@H](Cc2ccc(O)cc2)N2C(=O)CCN(C(=O)NCc3ccccc3)[C@H]2CN1Cc1cccc2ccccc12" please.
5

Any idea what Population Hoechst High Intensity Objects (%) was measured for "Cc1cccc(NC(=O)CN2CCC(c3ccccn3)CC2)c1.Cl.Cl" ?
3

Recorded Population Hoechst High Intensity Objects (%) for O=C(NCCN1CCC(n2c(=O)[nH]c3cc(Cl)ccc32)CC1)c1ccc(F)cc1 [HALOPEMIDE] , please?
1

Could you share which Population Hoechst High Intensity Objects (%) value was measured for CC[C@@H](C)Nc1nc(C)nc2c(-c3ccc(OC)nc3C)c(C)nn12 [PEXACERFONT] ?
2

Consider the molecule CC(=O)Nc1cccc2c1c(Sc1ccc(Cl)cc1)c(C)n2CC(=O)O [AZD1981] and give its measured Population Hoechst High Intensity Objects (%).
3
